Assay: Toxicity in ip dosed mouse assessed as lethality
Type: organism-based
Conditions: in vivo
Measured attribute: LD50 (µmol/kg)
Numbers only here, please. The scale is µmol/kg.

Input line: Would you mind telling me what LD50 value was observed for Cl.OC1(c2ccc(C(F)(F)F)cc2)CN2CCCCC2CO1 (stereo unspecified) ?
Output line: 468000

* * *

Attribute: TD50
Experiment: Neurotoxicity in ip dosed mouse by rotarod test
Format: toxicity, organism-based
Settings: in vivo
Kindly answer with a numeric value in µmol/kg, unit omitted.

Molecule	Recorded number
Cl.FC(F)(F)c1cccc(C2CN3CCCCC3CO2)c1 (stereo unspecified)	263000
CCC1(c2ccccc2)C(=O)N=C([O-])NC1=O.[Na+] (stereo unspecified) [PHENOBARBITAL SODIUM]	333000
Cl.OC1(c2ccccc2C(F)(F)F)CN2CCCCC2CO1 (stereo unspecified)	547000
Cl.FC(F)(F)c1ccc(C2CN3CCCCC3CO2)cc1 (stereo unspecified)	408000

Input line: Give its TD50 value. Item: Cl.OC1(c2cccc(C(F)(F)F)c2)CN2CCCCC2CO1 (stereo unspecified)
Output line: 218000

Input line: So what's the measured TD50 for this one? Cl.FC(F)(F)c1ccccc1C1CN2CCCCC2CO1 (stereo unspecified)
Output line: 716000

* * *

Measured selectivity ratio by item
Assay: Protective index, ratio of TD50 for neurotoxicity in ip dosed mouse to ED50 for anticonvulsant activity in ip dosed mouse
Type: toxicity, organism-based
Settings: in vivo, read-out: Ratio TD50/ED50
Number only, no unit.

Compound	selectivity ratio
Cl.OC1(c2cccc(C(F)(F)F)c2)CN2CCCCC2CO1 (stereo not drawn)	2.77
CCC1(c2ccccc2)C(=O)N=C([O-])NC1=O.[Na+] (stereo not drawn) [PHENOBARBITAL SODIUM]	3.88

Proceeding to the next compound to report its selectivity ratio.
Input line: Which value of selectivity ratio has been reported for Cl.FC(F)(F)c1cccc(C2CN3CCCCC3CO2)c1 (stereo not drawn) in the records?
Output line: 3.11
